# maps each entry to its solubility kinetic
Test Name: Kinetic solubility of compound at pH 7.4
Assay Setup: buffer
Answer in µM, number only, no unit symbol.

What measured solubility kinetic goes with `C[C@@H]1Cc2c(ccc3[nH]ncc23)[C@@H](c2c(F)cc(OCCN3CC(CF)C3)cc2F)N1CC(C)(C)F` ?
1

Moving on to the next compound: `C[C@@H]1Cc2c([nH]c3ccccc23)[C@@H](c2c(F)cc(O[C@H]3CCN(CCCF)C3)cc2F)N1CC(F)(F)CO`
35

Moving on to the next compound: `C[C@@H]1Cc2c([nH]c3ccccc23)[C@@H](c2c(F)cc(OC3CN(CCCF)C3)cc2F)N1CC(C)(C)F`
1

Please turn your attention to the following entry.
What measured solubility kinetic goes with `CC/C(=C(/c1ccc(/C=C/C(=O)O)cc1)c1ccc2[nH]ncc2c1)c1ccc(F)cc1Cl` ?
19

* * *

Target Desc: UniProt P03372
Sequence (P03372 whole entry): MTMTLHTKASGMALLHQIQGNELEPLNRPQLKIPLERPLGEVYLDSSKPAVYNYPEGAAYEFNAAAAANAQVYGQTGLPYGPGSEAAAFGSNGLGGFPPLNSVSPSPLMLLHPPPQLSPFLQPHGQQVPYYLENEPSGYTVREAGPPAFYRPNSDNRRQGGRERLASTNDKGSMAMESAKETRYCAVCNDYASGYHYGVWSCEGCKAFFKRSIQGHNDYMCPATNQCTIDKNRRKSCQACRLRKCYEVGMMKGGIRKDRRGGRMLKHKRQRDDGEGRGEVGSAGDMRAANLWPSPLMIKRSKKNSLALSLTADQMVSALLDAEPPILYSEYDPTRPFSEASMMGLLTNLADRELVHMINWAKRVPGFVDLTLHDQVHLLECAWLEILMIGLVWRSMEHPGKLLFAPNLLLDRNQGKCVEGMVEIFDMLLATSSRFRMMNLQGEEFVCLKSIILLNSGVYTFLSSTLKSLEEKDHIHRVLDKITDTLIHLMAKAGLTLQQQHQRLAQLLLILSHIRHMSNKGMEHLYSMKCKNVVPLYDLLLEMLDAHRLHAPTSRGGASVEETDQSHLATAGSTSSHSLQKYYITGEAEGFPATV
# maps each entry to its pIC50
FYI, pIC50 means -log10 of a concentration in mol per litre.

Sample answers from the record:
Entry `C[C@@H]1Cc2c([nH]c3cccc(F)c23)[C@@H](c2c(F)cc(NC3CN(CCCF)C3)cc2F)N1CC(F)(F)CO` , system UniProt P03372: what pIC50 was measured?
9.82

Moving on to the next compound: `C[C@@H]1Cc2c([nH]c3ccccc23)[C@@H](c2c(F)cc(NC3CN(CCCF)C3)cc2F)N1CC(F)(F)CO`
10.30

Please turn your attention to the following entry.
Entry `C[C@@H]1Cc2c([nH]c3ccccc23)[C@@H](c2c(F)cc(OC3CN(CCCO)C3)cc2F)N1CC(F)(F)CO` , system UniProt P03372: what pIC50 was measured?
10.10

* * *

Target Desc: Cav1.2 (Homo sapiens)
Sequence (Q13936 whole entry): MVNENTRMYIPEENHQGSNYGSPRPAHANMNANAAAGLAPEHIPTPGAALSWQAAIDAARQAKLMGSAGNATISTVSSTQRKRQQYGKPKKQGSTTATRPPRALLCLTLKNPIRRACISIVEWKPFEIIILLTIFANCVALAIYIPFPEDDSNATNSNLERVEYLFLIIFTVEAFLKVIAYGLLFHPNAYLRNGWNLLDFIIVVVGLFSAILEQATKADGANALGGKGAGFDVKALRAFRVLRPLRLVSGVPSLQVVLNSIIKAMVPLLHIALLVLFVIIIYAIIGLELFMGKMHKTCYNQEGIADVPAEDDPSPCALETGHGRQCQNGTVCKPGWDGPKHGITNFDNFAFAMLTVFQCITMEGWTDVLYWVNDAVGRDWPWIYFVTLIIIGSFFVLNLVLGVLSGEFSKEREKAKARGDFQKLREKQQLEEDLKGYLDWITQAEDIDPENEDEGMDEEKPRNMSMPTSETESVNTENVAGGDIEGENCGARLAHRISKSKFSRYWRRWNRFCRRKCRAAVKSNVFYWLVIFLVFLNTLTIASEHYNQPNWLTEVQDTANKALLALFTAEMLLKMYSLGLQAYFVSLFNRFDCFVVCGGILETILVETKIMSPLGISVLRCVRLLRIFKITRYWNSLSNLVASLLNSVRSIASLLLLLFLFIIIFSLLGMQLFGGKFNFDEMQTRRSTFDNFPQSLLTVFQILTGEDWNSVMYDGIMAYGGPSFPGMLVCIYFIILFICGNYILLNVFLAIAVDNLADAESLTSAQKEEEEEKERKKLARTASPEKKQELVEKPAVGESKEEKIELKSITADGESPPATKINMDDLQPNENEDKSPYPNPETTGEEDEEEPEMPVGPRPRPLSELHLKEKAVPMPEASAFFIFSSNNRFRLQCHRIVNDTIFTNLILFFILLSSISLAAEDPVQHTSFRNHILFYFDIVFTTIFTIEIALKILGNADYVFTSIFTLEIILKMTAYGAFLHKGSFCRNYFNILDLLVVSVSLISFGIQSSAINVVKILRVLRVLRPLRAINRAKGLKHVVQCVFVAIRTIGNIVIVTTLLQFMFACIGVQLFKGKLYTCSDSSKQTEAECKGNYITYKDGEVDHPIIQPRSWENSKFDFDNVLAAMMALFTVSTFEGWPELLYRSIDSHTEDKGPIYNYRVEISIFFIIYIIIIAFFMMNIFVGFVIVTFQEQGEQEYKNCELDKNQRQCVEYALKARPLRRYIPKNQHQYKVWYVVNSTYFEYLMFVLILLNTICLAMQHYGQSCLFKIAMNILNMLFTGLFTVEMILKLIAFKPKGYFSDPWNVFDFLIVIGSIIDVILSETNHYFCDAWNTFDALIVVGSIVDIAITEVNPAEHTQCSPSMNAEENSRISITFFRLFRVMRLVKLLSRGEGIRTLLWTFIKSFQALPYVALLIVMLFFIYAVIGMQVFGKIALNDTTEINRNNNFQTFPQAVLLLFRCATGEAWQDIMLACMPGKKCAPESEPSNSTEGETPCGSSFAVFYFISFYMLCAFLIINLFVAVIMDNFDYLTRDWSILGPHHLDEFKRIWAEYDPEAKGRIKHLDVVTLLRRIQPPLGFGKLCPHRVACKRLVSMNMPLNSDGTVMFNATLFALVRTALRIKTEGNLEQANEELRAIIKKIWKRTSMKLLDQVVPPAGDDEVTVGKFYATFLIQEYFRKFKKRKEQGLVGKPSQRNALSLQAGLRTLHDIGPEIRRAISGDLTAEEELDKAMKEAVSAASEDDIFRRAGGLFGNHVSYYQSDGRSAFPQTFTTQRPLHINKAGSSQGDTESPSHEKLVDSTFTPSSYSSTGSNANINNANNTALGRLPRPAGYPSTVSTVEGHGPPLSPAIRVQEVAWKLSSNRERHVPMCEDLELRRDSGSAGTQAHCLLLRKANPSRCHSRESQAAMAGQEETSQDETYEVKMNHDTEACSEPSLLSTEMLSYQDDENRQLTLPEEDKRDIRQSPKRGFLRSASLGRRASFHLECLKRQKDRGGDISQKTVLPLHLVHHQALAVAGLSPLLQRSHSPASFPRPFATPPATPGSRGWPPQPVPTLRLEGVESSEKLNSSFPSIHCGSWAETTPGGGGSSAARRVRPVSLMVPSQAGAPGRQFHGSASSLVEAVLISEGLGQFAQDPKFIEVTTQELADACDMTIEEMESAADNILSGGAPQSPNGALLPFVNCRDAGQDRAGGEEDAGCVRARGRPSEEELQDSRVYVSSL
Test Name: Inhibition of human Cav1.2 expressed in CHO cells at 10 uM by QPatch HT assay
Assay Setup: CHO cells expressing human Cav1.2
# maps each entry to its inhibition at 10 µM
Answer in %, number only, no unit symbol.

What measured inhibition at 10 µM goes with `C[C@@H]1Cc2c([nH]c3ccccc23)[C@@H](c2c(F)cc(NC3CN(CCCF)C3)cc2F)N1CC(F)(F)CO` ?
15.7

Please turn your attention to the following entry.
What measured inhibition at 10 µM goes with `C[C@@H]1Cc2c([nH]c3ccc(F)cc23)[C@@H](c2c(F)cc(NC3CN(CCCF)C3)cc2F)N1CC(F)(F)CO` ?
10.7

* * *

Test Name: Volume of distribution at steady state in Beagle dog at 1 mg/kg, iv or po measured after 0.033 to 24 hrs by LC/MS/MS analysis
Assay Setup: in vivo
Observation Type: Vd
Quick note: number first, unit second.

What measured Vd goes with C[C@@H]1Cc2c([nH]c3ccccc23)[C@@H](c2c(F)cc(NC3CN(CCCF)C3)cc2F)N1CC(F)(F)CO [GIREDESTRANT] ?
5.1 L/kg

* * *

# maps each entry to its bioavailability
Test Name: in vivo
Assay Setup: Sprague-Dawley, rat, po, 1 mg/kg
Quick note: number first, unit second.

What measured bioavailability goes with `C[C@@H]1Cc2c([nH]c3ccccc23)[C@@H](c2c(F)cc(OC3CN(CCCF)C3)cc2F)N1CC(C)(C)F` ?
31%

Moving on to the next compound: `C[C@@H]1Cc2c([nH]c3ccccc23)[C@@H](c2c(F)cc(OCCN3CC(CF)C3)cc2F)N1CC(C)(C)F`
31%

Please turn your attention to the following entry.
What measured bioavailability goes with `C[C@@H]1Cc2c([nH]c3ccccc23)[C@@H](c2c(F)cc(NC3CN(CCCF)C3)cc2F)N1CC(F)(F)CO` ?
41%

* * *

Test Name: Distribution coefficient, logD of the compound at pH 7.4
Assay Setup: octanol/water
Observation Type: logD

What measured logD goes with `C[C@@H]1Cc2c([nH]c3cccc(F)c23)[C@@H](c2c(F)cc(NC3CN(CCCF)C3)cc2F)N1CC(F)(F)CO` ?
3.3

Moving on to the next molecule: C[C@@H]1Cc2c([nH]c3ccccc23)[C@@H](c2c(F)cc(NC3CN(CCCF)C3)cc2F)N1CC(F)(F)CO [GIREDESTRANT]
2.9

***
What measured logD goes with `C[C@@H]1Cc2c([nH]c3ccccc23)[C@@H](c2c(F)cc(OCCN3CC(CF)C3)cc2F)N1CC(C)(C)F` ?
4

Moving on to the next molecule: CC/C(=C(/c1ccc(/C=C/C(=O)O)cc1)c1ccc2[nH]ncc2c1)c1ccc(F)cc1Cl [BRILANESTRANT]
3.8

* * *

Test Name: in vivo
Assay Setup: beagle, dog, po, 1 mg/kg
Observation Type: bioavailability (%)
Answer in %, number only, no unit symbol.

What measured bioavailability goes with `C[C@@H]1Cc2c([nH]c3ccccc23)[C@@H](c2c(F)cc(NC3CN(CCCF)C3)cc2F)N1CC(F)(F)CO` ?
55

* * *

Test Name: in vitro
Assay Setup: human, hepatocytes
Define the label as condition met when CLint scaled at 1 h is strictly less than 0.7 L/h/kg and as condition not met in all remaining cases.

Reference set, count: 2
Does this compound meet the criterion CLint scaled at 1 h < 0.7 L/h/kg? `C[C@@H]1Cc2c([nH]c3ccccc23)[C@@H](c2c(F)cc(OC3CN(CCCF)C3)cc2F)N1CC(C)(C)F`
condition met

Moving on to the next compound: `C[C@@H]1Cc2c([nH]c3ccccc23)[C@@H](c2c(F)cc(OCCN3CC(CF)C3)cc2F)N1CC(C)(C)F`
condition met

With those in mind, consider the next compound.
Does this compound meet the criterion CLint scaled at 1 h < 0.7 L/h/kg? C[C@]12CC[C@@H]3c4ccc(O)cc4C[C@@H](CCCCCCCCC[S+]([O-])CCCC(F)(F)C(F)(F)F)[C@H]3[C@@H]1CC[C@@H]2O (stereo partly drawn) [FULVESTRANT]
condition not met

* * *

Test Name: Kinetic solubility of compound at pH 7.4
Assay Setup: buffer
Observation Type: solubility kinetic (µM)
Answer in µM, number only, no unit symbol.

Sample answers from the record:
What measured solubility kinetic goes with `CC1=C(c2cccc(O)c2)[C@H](c2ccc(OCCN3CC(CF)C3)cc2)Oc2ccc(O)cc21` ?
47

Moving on to the next compound: C[C@]12CC[C@@H]3c4ccc(O)cc4C[C@@H](CCCCCCCCC[S+]([O-])CCCC(F)(F)C(F)(F)F)[C@H]3[C@@H]1CC[C@@H]2O (some centres undefined)
3

***
What measured solubility kinetic goes with `CC/C(=C(\c1ccc(O)cc1)c1ccc(OCCN(C)C)cc1)c1ccccc1` ?
31

Moving on to the next compound: `C[C@@H]1Cc2c([nH]c3ccccc23)[C@@H](c2c(F)cc(NC3CN(CCC(F)F)C3)cc2F)N1CC(F)(F)CO`
42

* * *

Test Name: in vivo
Assay Setup: Sprague-Dawley, rat, iv, 1 mg/kg
# maps each entry to its clearance
Answer in L/h/kg, number only, no unit symbol.

Sample answers from the record:
What measured clearance goes with `C[C@@H]1Cc2c([nH]c3ccc(F)cc23)[C@@H](c2c(F)cc(NC3CN(CCCF)C3)cc2F)N1CC(F)(F)CO` ?
1.08

Moving on to the next molecule: `C[C@@H]1Cc2c([nH]c3ccccc23)[C@@H](c2c(F)cc(NC3CN(CCCF)C3)cc2F)N1CC(F)(F)CO`
1.26

Moving on to the next molecule: `C[C@@H]1Cc2c([nH]c3cccc(F)c23)[C@@H](c2c(F)cc(NC3CN(CCCF)C3)cc2F)N1CC(F)(F)CO`
1.62

***
What measured clearance goes with `C[C@@H]1Cc2c([nH]c3ccccc23)[C@@H](c2c(F)cc(OC3CN(CCCF)C3)cc2F)N1CC(C)(C)F` ?
1.14
